TARGET UNDER TEST: human dopamine D2L receptors (long isoform) (Homo sapiens, UniProt P14416)
Construct: expressed in transfected cells; host or cells: HEK-293
Sequence (P14416 whole entry, canonical isoform): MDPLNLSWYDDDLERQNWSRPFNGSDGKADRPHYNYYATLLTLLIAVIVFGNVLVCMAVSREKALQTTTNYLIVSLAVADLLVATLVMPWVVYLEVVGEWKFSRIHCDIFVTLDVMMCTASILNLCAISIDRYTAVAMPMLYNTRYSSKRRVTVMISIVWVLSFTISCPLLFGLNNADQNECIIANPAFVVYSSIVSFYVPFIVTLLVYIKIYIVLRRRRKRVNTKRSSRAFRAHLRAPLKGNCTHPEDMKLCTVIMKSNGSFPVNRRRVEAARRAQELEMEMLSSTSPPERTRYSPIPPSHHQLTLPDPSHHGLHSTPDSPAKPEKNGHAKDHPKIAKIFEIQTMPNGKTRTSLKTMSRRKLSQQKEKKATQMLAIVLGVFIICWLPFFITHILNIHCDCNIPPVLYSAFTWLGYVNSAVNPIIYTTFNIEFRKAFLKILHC
ASSAY: Receptor binding study, dopamine D2L receptor ([125I]iodospiperone displacement), selectivity vs D3
CONDITION PARAMETERS: selectivity ratio, HEK-293 membranes

MOLECULE: COCCc1cc(N2CCN(CC[C@H]3CC[C@H](NC(C)=O)CC3)[C@H](C)C2)nc(C(C)(C)C)n1
D2/D3 (Ki (D2L)/Ki (D3)): +++ (+++>50)

MOLECULE: COCCc1cc(N2CCN(CC[C@H]3C[C@H](NC(C)=O)C3)C[C@@H]2C)nc(C(C)(C)C)n1
D2/D3 (Ki (D2L)/Ki (D3)): ++ (++>20)

MOLECULE: COCCc1cc(N2CCN(CCC3CC(NC=O)C3)CC2)nc(C(C)(C)C)n1.O=C(O)C(F)(F)F (stereo not shown)
D2/D3 (Ki (D2L)/Ki (D3)): ++ (++>20)

MOLECULE: CC(=O)N[C@H]1CC[C@H](CCN2CCN(c3cc(CCO)nc(C(C)(C)C)n3)[C@@H](C)C2)CC1
D2/D3 (Ki (D2L)/Ki (D3)): +++ (+++>50)

###

TARGET UNDER TEST: human dopamine D2L receptors (long isoform) (Homo sapiens)
Construct: expressed in transfected cells; host or cells: HEK-293
ASSAY: Receptor binding study, dopamine D2L receptor ([125I]iodospiperone displacement), selectivity vs D3
CONDITION PARAMETERS: selectivity ratio, HEK-293 membranes
RESULT TYPE: D2/D3 (Ki (D2L)/Ki (D3))

Completed entries (count: 5):
SAMPLE SMILES: COCCc1cc(N2CCN(CC[C@H]3CC[C@H](NC=O)CC3)C[C@H]2C)nc(C(C)(C)C)n1
RESULT: +++ (+++>50)

SAMPLE SMILES: COCCc1cc(N2CCN(CC[C@H]3CC[C@H](NC(C)=O)CC3)CC2)nc(C(C)(C)C)n1
RESULT: +++ (+++>50)

SAMPLE SMILES: COCCc1cc(N2CCN(CC[C@H]3CC[C@H](NC(C)=O)CC3)C[C@H]2C)nc(C(C)(C)C)n1
RESULT: +++ (+++>50)

SAMPLE SMILES: COCCc1cc(N2CCN(CC[C@H]3C[C@H](NC(C)=O)C3)CC2)nc(C(C)(C)C)n1.O=C(O)C(F)(F)F
RESULT: +++ (+++>50)

SAMPLE SMILES: COCCc1cc(N2CCN(CC[C@H]3CC[C@H](NC=O)CC3)CC2)nc(C(C)(C)C)n1
RESULT: +++ (+++>50)

Turning now to a further molecule:
Lab entry: human dopamine D2L receptors (long isoform) (Homo sapiens) assay, molecule COCc1cc(N2CCN(CC[C@H]3CC[C@H](NC(C)=O)CC3)CC2)nc(C(C)(C)C)n1 , D2/D3 (Ki (D2L)/Ki (D3)) = +++ (+++>50)
